# Test system: HepG2 cells
Readout label: Toxicity

[[record]]
molecule = "C[C@]12CC[C@@H](O)C[C@H]1CC[C@@H]1[C@@H]2[C@@H](O)C[C@@]2(C)[C@H]1CC[C@]2(O)[C@@H](O)CO [PR17, 5β-Pregnan-3α,11β,17,20α-21-pentol]"
readout_label = "Toxicity"
result = "200 µM"

[[record]]
molecule = "C[C@]12CC[C@H]3[C@@H](CCC4=CC(=O)CC[C@@]43C)[C@@H]1CC[C@H]2O [AN15, 4-Androsten-17α-ol-3-one]"
readout_label = "Toxicity"
result = "None"

[[record]]
molecule = "C[C@]12CC[C@@H]3c4ccc(OS(=O)(=O)O)cc4CC[C@H]3[C@@H]1CCC2=O [ES8, 1,3,5(10)-Estratrien-17-one-3-sulfate]"
readout_label = "Toxicity"
result = "None"

